These measurements were taken from ChEMBL document CHEMBL4513146.

System: Candida albicans
CONDITION DESCRIPTION: Concentration 32 ug.mL-1; ASSAY_TEST Inhibition of Fungal Growth; detection method Absorption (OD530)
Description: Antifungal activity against Candida albicans ATCC 90028 (CO-ADD:FG_001); MIC in YNB media using NBS plates, by OD630
Results with a measured potency or affinity are listed apart.
ASSAY READOUT: Inhibition
Write down the value, and be sure its unit follows.

[[record]]
compound_structure_string = "Cc1ccc(NC(=O)CSc2nc3ccccc3n3c(C)nnc23)cc1C"
assay_system = "Candida albicans"
recorded_measurement = "44.31%"


Prompt: For the molecule shown here, Cc1ccc(NC(=O)Cn2c(=O)c3nnc(C(C)C)n3c3ccccc32)c(C)c1 , give the reported Inhibition.
Completion: 1.04%

Prompt: Same for Cc1cc(C)c(NC(=O)Cn2nc3c(Sc4ccccc4)nccn3c2=O)c(C)c1
Completion: 5.92%

Prompt: Next entry: Cc1nnc2ccc(S(=O)(=O)N(Cc3cccc(F)c3)c3ccc4c(c3)OCO4)cn12
Completion: 3.36%

Prompt: Same for CCCCn1c(=O)c2sccc2n2c(=O)n(CC(=O)NC(C)C)nc12
Completion: 0.06%

Prompt: What do you have for O=C(NCc1ccccc1)c1ccc2nn(CC(=O)N3CCN(c4ccccc4)CC3)c(=O)n2c1 ?
Completion: 3.02%
